Target: T1, O9
T1 chain: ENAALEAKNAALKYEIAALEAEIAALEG
Test: two-hybrid library CC0;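 also: natural log of median RNA to DNA barcode read ratio; higher means stronger binding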
Settings: mean of both orientations
In this section, each of the binders is paired with its reported interaction score.
Note: the reply should be a number with no unit written.

>>> recorded_number("KNAALKAKIAALKYKNAALKAEIAALEG [O13]")
-2.75
>>> recorded_number("KIAALKAKNAALKYKIAALKAENAALEG [O7]")
-2.77
>>> recorded_number("EIAALEAKIAALKYENAALEAENAALEG [O3]")
-2.71
>>> recorded_number("EIAALEAKIAALKYKNAALKAKNAALKG [O12]")
-2.71

Shifting focus to the binder that follows.
Exam item: Look at this binder and give its reported interaction score. KNAALKAENAALEYKIAALKAKIAALKG [O10]
Marked response: 1.47
